- STUDY_SYSTEM: adenovirus type 5 vector particles (wild-type capsid) (human adenovirus type 5)
- ASSAY_EXPLANATION: SPR; hydrophobic (slow) component of one-to-two model
ASSAY_ENDPOINT: Kd (nM)

| BINDER | ASSAY_RESULT |
| --- | --- |
| human platelet factor 4 (natural protein, wild-type capsid; copies by convention for the Ad5 virion; hexon is the PF4-binding protein; internal proteins IIIa, VI and VIII left out; Y477 is the fiber residue of the paper (AAQ19310.1)) EAEEDGDLQCLCVKTTSQVRPRHITSLEVIKAGPHCPTAQLIATLKNGRKICLDLQAPLYKKIIKKLLES | 24.4 |
